Where these numbers come from: patent US7501430B2

# assayedTarget: mutant B-RAF (Homo sapiens, UniProt P15056, V600E)
# Construct: purchased Upstate (Charlottesville, Va.)
# Sequence (P15056 whole entry V600E): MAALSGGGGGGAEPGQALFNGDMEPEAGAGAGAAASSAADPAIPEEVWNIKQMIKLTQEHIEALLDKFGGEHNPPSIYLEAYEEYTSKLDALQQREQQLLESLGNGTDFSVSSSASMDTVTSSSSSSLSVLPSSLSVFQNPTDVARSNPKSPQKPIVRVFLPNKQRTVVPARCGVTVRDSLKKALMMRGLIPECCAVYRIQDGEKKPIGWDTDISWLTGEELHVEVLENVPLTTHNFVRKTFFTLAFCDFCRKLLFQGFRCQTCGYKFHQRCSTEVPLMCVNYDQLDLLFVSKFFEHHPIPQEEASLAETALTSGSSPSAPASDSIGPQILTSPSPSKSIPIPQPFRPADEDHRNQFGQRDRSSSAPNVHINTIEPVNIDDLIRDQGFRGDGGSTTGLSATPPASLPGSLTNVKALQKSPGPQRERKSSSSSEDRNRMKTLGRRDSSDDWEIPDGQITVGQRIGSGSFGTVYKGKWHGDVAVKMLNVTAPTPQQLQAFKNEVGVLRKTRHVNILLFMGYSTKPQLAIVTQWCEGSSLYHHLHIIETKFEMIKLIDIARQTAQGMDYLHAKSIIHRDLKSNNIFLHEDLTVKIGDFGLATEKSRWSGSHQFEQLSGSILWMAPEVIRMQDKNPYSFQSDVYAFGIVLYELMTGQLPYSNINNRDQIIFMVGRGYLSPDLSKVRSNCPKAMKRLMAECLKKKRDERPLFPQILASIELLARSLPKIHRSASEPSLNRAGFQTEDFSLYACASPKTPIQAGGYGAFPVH
# testSummary: RAF biochemical assay (MEK-1 phosphorylation, anti-phospho MEK1/2 detection)
# conditionSummary: @ 10 uM; read-out: Mutant B-RAF % inhibition
Think of 40% as a floor: if inhibition at 10 µM stands on it or above, it is y; beneath it, n.

Task item: Hi, just wondering whether COc1ccc(NC(=O)N2CCC[C@@H](Nc3nccc(-c4c(-c5ccc(F)cc5)nc5occn45)n3)C2)c(OC)c1 shows inhibition at 10 µM of 40% or higher.
Reply: y

Task item: # check: inhibition at 10 µM of O=C(NCc1ccco1)N1CCC[C@@H](Nc2nccc(-c3c(-c4ccc(F)c(F)c4)nc4sccn34)n2)C1 is greater than or equal to 40%
Reply: y

----------
# assayedTarget: mutant B-RAF (Homo sapiens, UniProt P15056, V600E)
# Construct: purchased Upstate (Charlottesville, Va.)
# testSummary: RAF biochemical assay (MEK-1 phosphorylation, anti-phospho MEK1/2 detection)
# conditionSummary: read-out: Mutant B-RAF IC50 (uM) or % inhibition
Measured IC50 accompanies every entry in the list below.
Field: numeric (µM). Do not append units.

compound: O=S(=O)(C1CC1)N1CCC[C@@H](Nc2nccc(-c3c(-c4cccc(O)c4)nc4occn34)n2)C1 [Example 397]
assayedTarget: mutant B-RAF (Homo sapiens, UniProt P15056, V600E)
readoutNumber: 2.3

Task item: Provide IC50, tested on mutant B-RAF (Homo sapiens, UniProt P15056, V600E), for O=S(=O)(c1ccccc1)N1CCC[C@@H](Nc2nccc(-c3c(-c4cccc(O)c4)nc4occn34)n2)C1 [Example 398] .
Reply: 0.042

Task item: Quote IC50 with test system mutant B-RAF (Homo sapiens, UniProt P15056, V600E) for CC(=O)c1ccc(-c2nc3sccn3c2-c2ccnc(N[C@@H]3CCCN(S(=O)(=O)c4ccc(Cl)cc4)C3)n2)cc1 [Example 400]
Reply: 1.3

----------
Recorded IC50 values for a group of compounds are listed next.
# assayedTarget: mutant B-RAF (Homo sapiens, UniProt P15056, V600E)
# Construct: purchased Upstate (Charlottesville, Va.)
# testSummary: RAF biochemical assay (MEK-1 phosphorylation, anti-phospho MEK1/2 detection)
# conditionSummary: read-out: Mutant B-RAF IC50
Entry rule: numbers only, all in nM.

smilesEntry: CCNC(=O)N1CCC(Nc2nccc(-c3c(-c4ccc(F)cc4)nc4sc(C)cn34)n2)CC1
IC50, nM: 428

Task item: Please report the measured IC50 for O=C([C@@H]1CCCN1)N1CCC(Nc2nccc(-c3c(-c4ccc(F)cc4)nc4occn34)n2)CC1 tested on mutant B-RAF (Homo sapiens, UniProt P15056, V600E).
Reply: 1450

Task item: Specify the recorded IC50 for N#Cc1ccc(S(=O)(=O)N2CCC[C@@H](Nc3nccc(-c4c(-c5ccc(F)cc5)nc5occn45)n3)C2)cc1 , system: mutant B-RAF (Homo sapiens, UniProt P15056, V600E).
Reply: 630

----------
Catalogue of inhibition at 10 µM values
# assayedTarget: mutant B-RAF (Homo sapiens, UniProt P15056, V600E)
# Construct: purchased Upstate (Charlottesville, Va.)
# testSummary: RAF biochemical assay (MEK-1 phosphorylation, anti-phospho MEK1/2 detection)
# conditionSummary: @ 10 uM; read-out: Mutant B-RAF % inhibition
Numeric answer only, unit % assumed.

compound: O=C(Cc1ccc(F)cc1)N1CCC(Nc2nccc(-c3c(-c4ccc(F)cc4)nc4occn34)n2)CC1 [Example 179]
assayedTarget: mutant B-RAF (Homo sapiens, UniProt P15056, V600E)
reportedProperty: inhibition at 10 µM
readoutNumber: 29
--
compound: CS(=O)(=O)N1CCC(Nc2nccc(-c3c(-c4cccc(C(F)(F)F)c4)nc4occn34)n2)CC1 [Example 309]
assayedTarget: mutant B-RAF (Homo sapiens, UniProt P15056, V600E)
reportedProperty: inhibition at 10 µM
readoutNumber: 33
--
compound: Cc1ccccc1S(=O)(=O)N1CCC(Nc2nccc(-c3c(-c4ccc(F)cc4)nc4occn34)n2)CC1 [Example 235]
assayedTarget: mutant B-RAF (Homo sapiens, UniProt P15056, V600E)
reportedProperty: inhibition at 10 µM
readoutNumber: 30

Kindly consider the entry below.
Task item: Report inhibition at 10 µM for CN(C)c1ccc(C(=O)N2CCC(Nc3nccc(-c4c(-c5ccc(F)c(F)c5)nc5sccn45)n3)CC2)cc1 [Example 221]
Reply: 42
